system: Phosphodiesterase 1 (Bos taurus) (UniProt Q01061+P14100)
Sequence (P14100 whole entry, looked up): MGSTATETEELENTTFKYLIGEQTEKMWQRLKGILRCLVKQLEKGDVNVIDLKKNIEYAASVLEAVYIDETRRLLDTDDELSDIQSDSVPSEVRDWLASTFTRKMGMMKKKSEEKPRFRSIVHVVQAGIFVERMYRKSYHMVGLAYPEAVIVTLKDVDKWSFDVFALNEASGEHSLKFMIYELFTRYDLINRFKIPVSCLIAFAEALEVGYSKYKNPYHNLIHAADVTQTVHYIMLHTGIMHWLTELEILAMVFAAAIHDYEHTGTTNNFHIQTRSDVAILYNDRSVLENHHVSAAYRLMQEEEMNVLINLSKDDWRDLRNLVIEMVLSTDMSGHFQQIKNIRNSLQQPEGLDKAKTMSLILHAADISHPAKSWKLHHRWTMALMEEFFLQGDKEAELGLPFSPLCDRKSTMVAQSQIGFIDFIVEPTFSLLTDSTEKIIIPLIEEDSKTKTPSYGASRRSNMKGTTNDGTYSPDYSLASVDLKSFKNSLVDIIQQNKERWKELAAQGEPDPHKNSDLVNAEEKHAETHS
Sequence (Q01061 whole entry, looked up): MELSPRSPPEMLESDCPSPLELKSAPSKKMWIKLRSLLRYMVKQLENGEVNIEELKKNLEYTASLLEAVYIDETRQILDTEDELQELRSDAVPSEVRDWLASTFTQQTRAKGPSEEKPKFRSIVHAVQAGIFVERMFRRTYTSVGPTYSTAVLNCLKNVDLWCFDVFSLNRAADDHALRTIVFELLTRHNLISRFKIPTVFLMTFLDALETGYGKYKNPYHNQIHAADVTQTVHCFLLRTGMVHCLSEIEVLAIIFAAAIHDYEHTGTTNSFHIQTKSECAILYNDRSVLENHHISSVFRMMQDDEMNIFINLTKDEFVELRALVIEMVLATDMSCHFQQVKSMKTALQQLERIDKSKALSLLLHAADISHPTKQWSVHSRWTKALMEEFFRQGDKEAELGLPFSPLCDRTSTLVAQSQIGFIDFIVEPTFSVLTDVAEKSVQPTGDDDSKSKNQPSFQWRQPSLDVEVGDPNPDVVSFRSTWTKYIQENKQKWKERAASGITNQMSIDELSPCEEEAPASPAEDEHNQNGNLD
assay text: Inhibition of bovine brain calmodulin-dependent cGMP PDE at 100 uM
value kind: inhibition (%)

smiles data: Nc1nc(O)c2ncn([C@@H]3O[C@@H]4C[C@H](C(=O)O)O[C@@H]4[C@H]3O)c2n1
value kind: inhibition
result: 20

smiles data: Nc1nc(O)c2ncn([C@H]3C[C@@H]4C[C@@](CC(=O)O)(C(=O)O)C[C@@H]4C3)c2n1
value kind: inhibition
result: 57

I: Nc1nc(O)c2ncn([C@@H]3O[C@H]4C[C@@H](C(=O)O)O[C@H]4[C@H]3O)c2n1
II: Nc1nc(O)c2ncn([C@@H]3O[C@@H]4C[C@@](CC(=O)O)(C(=O)O)O[C@@H]4[C@H]3O)c2n1
III: Nc1nc(O)c2ncn([C@@H]3O[C@H]4C[C@@](CC(=O)O)(C(=O)O)O[C@H]4[C@H]3O)c2n1
Prompt line: # rank_down: sort by inhibition, max first Provide the labels, sequenced as the question asks.
Response line: III, I, II
(III: 42%, I: 18%, II: 3%)

---

system: Phosphodiesterase 1 (Bos taurus, UniProt Q01061+P14100)
assay text: Inhibition of bovine brain calmodulin-dependent cGMP PDE
value kind: IC50 (µM)

A: O=C(O)C[C@]1(C(=O)O)C[C@@H]2C[C@@H](n3cnc4c(O)ncnc43)C[C@@H]2O1
B: Nc1nc(O)c2ncn([C@@H]3O[C@H]4C[C@](CC(=O)O)(C(=O)O)O[C@H]4[C@H]3O)c2n1
C: Nc1nc(O)c2ncn([C@@H]3O[C@@H]4C[C@](CC(=O)O)(C(=O)O)O[C@@H]4[C@H]3O)c2n1
D: Nc1nc(Cl)c2ncn([C@@H]3C[C@H]4C[C@@H](C(=O)O)O[C@H]4C3)c2n1
Prompt line: Quick one: which order do the items above go in by IC50, smallest to largest? Provide the labels, sequenced as the question asks.
Response line: B, A, C, D
(B: 2 µM, A: 9 µM, C: 20 µM, D: 42 µM)

meta.source: ChEMBL document CHEMBL1126654
